- target or system: T1, APJ (orphan G protein-coupled receptor protein)
- T1 chain: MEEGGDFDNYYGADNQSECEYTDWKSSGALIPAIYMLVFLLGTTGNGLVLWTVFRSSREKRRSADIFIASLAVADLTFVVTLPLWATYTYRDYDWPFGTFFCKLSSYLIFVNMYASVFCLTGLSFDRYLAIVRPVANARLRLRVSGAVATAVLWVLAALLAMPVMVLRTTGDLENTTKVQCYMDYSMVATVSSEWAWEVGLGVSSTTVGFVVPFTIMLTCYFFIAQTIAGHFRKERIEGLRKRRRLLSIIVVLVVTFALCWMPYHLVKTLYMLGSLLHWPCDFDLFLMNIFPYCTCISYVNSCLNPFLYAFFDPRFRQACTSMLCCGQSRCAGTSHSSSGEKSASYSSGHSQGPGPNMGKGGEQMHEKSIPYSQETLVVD
- assay remarks: cell-based or functional assay
measurement type: EC50, inhibition of forskolin-stimulated cAMP production (CHO-A10 clone 6 cells)

RRKRPRLSHKGPMPF (also called Compound in Ex. 23) [Arg-Arg-Lys-Arg-Pro-Arg-Leu-Ser-His-Lys-Gly-Pro-Met-Pro-Phe]	0.31 nM

Could you share which EC50, inhibition of forskolin-stimulated cAMP production (CHO-A10 clone 6 cells) value was measured for RPRLFARGPMPF (also called Compound in Ex. 31) [Arg-Pro-Arg-Leu-Phe-Ala-Arg-Gly-Pro-Met-Pro-Phe] ?
0.14 nM

Next: RRFRPRLSHKGPMPF (also called Compound in Ex. 33) [Arg-Arg-Phe-Arg-Pro-Arg-Leu-Ser-His-Lys-Gly-Pro-Met-Pro-Phe]
1.1 nM

Next: RRARPRLSHKGPMPF (also called Compound in Ex. 25) [Arg-Arg-Ala-Arg-Pro-Arg-Leu-Ser-His-Lys-Gly-Pro-Met-Pro-Phe]
0.25 nM

Next: RPRLSARGPMPF (also called Compound in Ex. 24) [Arg-Pro-Arg-Leu-Ser-Ala-Arg-Gly-Pro-Met-Pro-Phe]
0.25 nM

Next: RRQRPRLSARGP [Arg-Arg-Gln-Arg-Pro-Arg-Leu-Ser-Ala-Arg-Gly-Pro]
0.26 nM

Next: RRQRPRLSARGPM (also called Compound in Ex. 18) [Arg-Arg-Gln-Arg-Pro-Arg-Leu-Ser-Ala-Arg-Gly-Pro-Met]
0.18 nM

Next: RRRRPRLSHKGPMPF [Arg-Arg-Arg-Arg-Pro-Arg-Leu-Ser-His-Lys-Gly-Pro-Met-Pro-Phe]
0.32 nM

Next: RPRLFARGPMF (also called Compound in Ex. 47) [Arg-Pro-Arg-Leu-Phe-Ala-Arg-Gly-Pro-Met-Phe]
0.36 nM
